Hello, the source for this data is patent US8735387B2, in case you need it.

Target: human Edg-1 receptor (Homo sapiens, UniProt P21453)
Construct: expressed in transfected cells; membrane preparation
Sequence (P21453 whole entry): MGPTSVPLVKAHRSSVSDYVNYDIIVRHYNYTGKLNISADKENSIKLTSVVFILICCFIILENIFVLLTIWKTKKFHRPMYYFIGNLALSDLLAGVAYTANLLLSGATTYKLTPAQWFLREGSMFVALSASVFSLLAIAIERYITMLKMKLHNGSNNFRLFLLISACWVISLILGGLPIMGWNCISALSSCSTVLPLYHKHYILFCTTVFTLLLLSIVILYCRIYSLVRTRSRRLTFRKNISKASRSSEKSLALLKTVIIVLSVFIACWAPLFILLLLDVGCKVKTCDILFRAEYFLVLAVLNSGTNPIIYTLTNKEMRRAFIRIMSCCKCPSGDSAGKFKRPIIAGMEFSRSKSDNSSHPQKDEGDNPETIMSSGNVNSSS
Test: GTP-γ-S assay using human Edg-1 receptors (scintillation proximity assay, membrane preparation from CHO Flp-In cell line)
Type: biochemical
Conditions: example compound at 10 μM; relative to 10 μM S1P; GTP-γ-S SPA, human Edg-1 membranes
Measured quantity: % Activation (Edg-1 receptor activation in percent of the activation by 10 μM S1P) (%)

[
  {
    "Structure notation": "Cc1cccc(-c2nc3c(OCCC(C)C)nc(Cc4ccc(Cl)cc4)nc3o2)c1",
    "Target under test": "human Edg-1 receptor (Homo sapiens, UniProt P21453)",
    "Value measured": 22
  },
  {
    "Structure notation": "CCCOc1nc(Cc2ccc(Cl)cc2)nc2oc(-c3ccc(OCC(=O)O)c(Cl)c3)nc12",
    "Target under test": "human Edg-1 receptor (Homo sapiens, UniProt P21453)",
    "Value measured": 107
  },
  {
    "Structure notation": "CCOc1nc(Cc2ccc(Cl)cc2)nc2oc(-c3cc(C)c(OCC(=O)NCCC(=O)O)c(C)c3)nc12",
    "Target under test": "human Edg-1 receptor (Homo sapiens, UniProt P21453)",
    "Value measured": 96
  },
  {
    "Structure notation": "Cc1ccc(-c2nc3c(OC4CCCC4)nc(Cc4ccc(Cl)cc4)nc3o2)cc1",
    "Target under test": "human Edg-1 receptor (Homo sapiens, UniProt P21453)",
    "Value measured": 41
  }
]

---

Target: human Edg-1 receptor (Homo sapiens)
Construct: expressed in transfected cells; membrane preparation
Experiment: GTP-γ-S assay using human Edg-1 receptors (scintillation proximity assay, membrane preparation from CHO Flp-In cell line)
Format: biochemical
Conditions: example compound at 10 μM; relative to 10 μM S1P; GTP-γ-S SPA, human Edg-1 membranes
# Lookup of reported % Activation (Edg-1 receptor activation in percent of the activation by 10 μM S1P) keyed by entry
Measured quantity: % Activation (Edg-1 receptor activation in percent of the activation by 10 μM S1P) (%)

[
  {
    "Compound": "CCOc1nc(Cc2ccc(Cl)cc2)nc2oc(-c3cc(C)c(OCC(O)CS(=O)(=O)c4ncn[nH]4)c(C)c3)nc12 (stereo not shown)",
    "Target under test": "human Edg-1 receptor (Homo sapiens)",
    "Value measured": 116
  },
  {
    "Compound": "CCCOc1nc(Cc2ccc(Cl)cc2)nc2oc(-c3cc(OC)ncc3Cl)nc12",
    "Target under test": "human Edg-1 receptor (Homo sapiens)",
    "Value measured": 106
  },
  {
    "Compound": "CCCOc1nc(CN2CCC(F)(F)CC2)nc2oc(-c3cc(F)cc(F)c3)nc12",
    "Target under test": "human Edg-1 receptor (Homo sapiens)",
    "Value measured": 117
  },
  {
    "Compound": "CCCOc1nc(Cn2cnc(C#N)n2)nc2oc(-c3cccc(F)c3)nc12",
    "Target under test": "human Edg-1 receptor (Homo sapiens)",
    "Value measured": 79
  },
  {
    "Compound": "CCOc1nc(Cc2ccc(Cl)cc2)nc2oc(-c3cccc(OCC(=O)NCCC(=O)O)c3)nc12",
    "Target under test": "human Edg-1 receptor (Homo sapiens)",
    "Value measured": 92
  },
  {
    "Compound": "CCOc1nc(Cc2ccc(Cl)cc2)nc2oc(-c3cccc(OCC(=O)NCCN4CCOCC4)c3)nc12",
    "Target under test": "human Edg-1 receptor (Homo sapiens)",
    "Value measured": 52
  },
  {
    "Compound": "Clc1ccc(Cc2nc(OCC3CC3)c3nc(-c4ccc(N5CCOCC5)nc4)oc3n2)cc1",
    "Target under test": "human Edg-1 receptor (Homo sapiens)",
    "Value measured": 87
  },
  {
    "Compound": "CCCOc1nc(CN2CCCC(F)C2)nc2oc(-c3cccc(F)c3)nc12 (stereo not shown)",
    "Target under test": "human Edg-1 receptor (Homo sapiens)",
    "Value measured": 113
  },
  {
    "Compound": "CCOc1nc(Cc2ccc(Cl)cc2)nc2oc(-c3cc(C)c(OCC(O)CNC(=O)CC(C)C)c(C)c3)nc12 (stereo not shown)",
    "Target under test": "human Edg-1 receptor (Homo sapiens)",
    "Value measured": 78
  },
  {
    "Compound": "CCCOc1nc(CN2CCCOCC2)nc2oc(-c3cc(F)c(F)cc3Cl)nc12",
    "Target under test": "human Edg-1 receptor (Homo sapiens)",
    "Value measured": 104
  },
  {
    "Compound": "Clc1ccc(Cc2nc(OC3CCCC3)c3nc(-c4cccs4)oc3n2)cc1",
    "Target under test": "human Edg-1 receptor (Homo sapiens)",
    "Value measured": 83
  },
  {
    "Compound": "CCCOc1nc(CN2CCSCC2)nc2oc(-c3cccc(F)c3)nc12",
    "Target under test": "human Edg-1 receptor (Homo sapiens)",
    "Value measured": 109
  },
  {
    "Compound": "CCOc1nc(Cc2ccc(Cl)cc2)nc2oc(-c3cc(C)c(OCC(O)CSc4ncn[nH]4)c(C)c3)nc12 (stereo not shown)",
    "Target under test": "human Edg-1 receptor (Homo sapiens)",
    "Value measured": 99
  },
  {
    "Compound": "CCOc1nc(Cc2ccc(Cl)cc2)nc2oc(-c3cc(C)c(OCC(=O)N4CC(C(=O)OC)C4)c(C)c3)nc12",
    "Target under test": "human Edg-1 receptor (Homo sapiens)",
    "Value measured": 111
  },
  {
    "Compound": "CCCOc1nc(CN2CCOCC2)nc2oc(-c3ccc(Cl)c(Cl)c3)nc12",
    "Target under test": "human Edg-1 receptor (Homo sapiens)",
    "Value measured": 112
  },
  {
    "Compound": "CCCOc1nc(CN2CCCOCC2)nc2oc(-c3ccc(F)c(F)c3)nc12",
    "Target under test": "human Edg-1 receptor (Homo sapiens)",
    "Value measured": 105
  }
]
